target desc: T1, cyno FcRn/b2M (cyno, UniProt Q8SPV9 24-297; Q8SPW0 21-119, biotinylated)
T1 construct: bought recombinant biotinylated protein (Immunitrack ITF05 or ACRO FCM-C82W5); also called cFcRn; cFcRn/cb2M
T1 sequence (Q8SPV9 24-297 limits assumed, chain 1 of 2): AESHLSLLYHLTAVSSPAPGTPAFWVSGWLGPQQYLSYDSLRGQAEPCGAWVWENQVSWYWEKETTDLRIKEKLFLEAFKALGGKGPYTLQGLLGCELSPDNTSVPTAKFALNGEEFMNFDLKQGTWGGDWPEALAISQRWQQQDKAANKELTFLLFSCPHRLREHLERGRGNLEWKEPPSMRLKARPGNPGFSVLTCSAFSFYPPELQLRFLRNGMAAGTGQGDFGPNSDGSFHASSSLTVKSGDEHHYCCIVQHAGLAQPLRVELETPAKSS
T1 sequence (Q8SPW0 21-119 limits assumed, chain 2 of 2): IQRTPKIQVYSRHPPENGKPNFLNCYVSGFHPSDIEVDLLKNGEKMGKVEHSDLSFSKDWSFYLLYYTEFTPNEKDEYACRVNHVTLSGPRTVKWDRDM
assay info: SPR off-rate; pH 7.4 vs pH 6.0;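 also: surface plasmon resonance with diluted periplasmic extracts flowed over ligand surfaces, 120 s association and 600–3600 s dissociation at 25 °C, running buffer containing 150 mM NaCl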
quantity kind: kd ratio pH 7.4/6.0

State the recorded kd ratio pH 7.4/6.0 for this entry: T0263018B11 L100aM (VHH, name in Kabat numbering, FLAG3-His6 tagged) VHH: EVQLVESGGGVVQPGGSLRLSCAASGFTFSSYAMYWVRQAPGKGLEWVSAISSGGGSTDYADSVKGRFTISRDNSKNTLYLQMNSLRPEDTALYYCAADTLYTSMTWYSYWGQGTLVTVSS 41

State the recorded kd ratio pH 7.4/6.0 for this entry: T0263018B11 G26S (VHH, name in Kabat numbering, FLAG3-His6 tagged) VHH: EVQLVESGGGVVQPGGSLRLSCAASSFTFSSYAMYWVRQAPGKGLEWVSAISSGGGSTDYADSVKGRFTISRDNSKNTLYLQMNSLRPEDTALYYCAADTLYTSLTWYSYWGQGTLVTVSS 67

a = T0263018B11 S56Q (VHH, name in Kabat numbering, FLAG3-His6 tagged) VHH: EVQLVESGGGVVQPGGSLRLSCAASGFTFSSYAMYWVRQAPGKGLEWVSAISSGGGQTDYADSVKGRFTISRDNSKNTLYLQMNSLRPEDTALYYCAADTLYTSLTWYSYWGQGTLVTVSS
b = T0263018B11 T28M (VHH, name in Kabat numbering, FLAG3-His6 tagged) VHH: EVQLVESGGGVVQPGGSLRLSCAASGFMFSSYAMYWVRQAPGKGLEWVSAISSGGGSTDYADSVKGRFTISRDNSKNTLYLQMNSLRPEDTALYYCAADTLYTSLTWYSYWGQGTLVTVSS
Rank a against b by their kd ratio pH 7.4/6.0 values and give the higher one. Kindly give the label for the entry you pick. b
